Test summary: qHTS assay for small molecule antagonists of retinoid X receptor alpha signaling (AID 588546);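 also: cells stimulated with 9-cis-retinoic acid as agonist; % is scaled to controls: 0 for no effect and ±100 for the full control effect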
Details: HEK293T RXRa-UAS-bla, beta-lactamase ratio, antagonist mode; measured here: W530 green channel, cytotoxicity proxy
Results filed as inconclusive are left out.
Listing: max response of selected molecules
Number only, in %; omit the unit.

CCCC/C=C\CCCCCCCCO = -4.18
O=C(OCC1CCC2OC2C1)C1CCC2OC2C1 (configuration not stated) = 1.3
CCCCCCCCCC(=O)OC = -11.2
COC(=O)c1ccccc1S(=O)(=O)NC(=O)Nc1nc(OC(F)F)cc(OC(F)F)n1 = -7.16
CC/C=C\CCOC(=O)c1ccccc1O = -7.38

Ask | Give the measured max response of CC1(C)CC(NCCCCCCNC2CC(C)(C)NC(C)(C)C2)CC(C)(C)N1 .
Reply | -10.1

Ask | Okay, and CC(=O)Nc1ccc(N=Nc2cc(C)ccc2O)cc1 ?
Reply | -4.33
